This document collects pIC50 values reported for Histone-lysine N-methyltransferase ASH1L (Homo sapiens, UniProt Q9NR48).
pIC50: −log10 of the molar value.

NC(=S)c1cccc(-c2c[nH]c3cccc(N)c23)c1
< 4.00
Cn1ccc2c(-c3cccc(C(N)=S)c3)cccc21
4.00 to 4.70
NC(=S)c1cccc(-c2cn(CCCC(F)(F)F)c3cc(CNC(=O)c4c[nH]cn4)ccc23)c1
> 4.70

Fill in: Histone-lysine N-methyltransferase ASH1L (Homo sapiens, UniProt Q9NR48) pIC50 for CCC(O)c1ccc2c(-c3cccc(C(N)=S)c3)cn(CCC(F)F)c2c1 (stereo not drawn) = > 4.70

Fill in: Histone-lysine N-methyltransferase ASH1L (Homo sapiens, UniProt Q9NR48) pIC50 for NC(=S)c1cccc(-c2cccc3[nH]ccc23)c1O = < 4.00

Fill in: Histone-lysine N-methyltransferase ASH1L (Homo sapiens, UniProt Q9NR48) pIC50 for NC(=S)c1cccc(-c2cn(CC3CC(F)C(F)C3)c3cc(CO)ccc23)c1 (stereo not drawn) = > 4.70

Fill in: Histone-lysine N-methyltransferase ASH1L (Homo sapiens, UniProt Q9NR48) pIC50 for NC(=S)c1ccc(-c2ccccc2)s1 = < 4.00

Fill in: Histone-lysine N-methyltransferase ASH1L (Homo sapiens, UniProt Q9NR48) pIC50 for NC(=S)c1ccnc(-n2cccc2)c1 = < 4.00

Fill in: Histone-lysine N-methyltransferase ASH1L (Homo sapiens, UniProt Q9NR48) pIC50 for CS(=O)(=O)N1CCC(n2cc(-c3cccc(C(N)=S)c3)c3ccc(CNc4nnc(N)s4)cc32)CC1 = > 4.70

Fill in: Histone-lysine N-methyltransferase ASH1L (Homo sapiens, UniProt Q9NR48) pIC50 for NC(=S)c1cccc(-c2ccc(CCC(F)F)c3[nH]c(CO)cc23)c1 = > 4.70

Fill in: Histone-lysine N-methyltransferase ASH1L (Homo sapiens, UniProt Q9NR48) pIC50 for CC(=O)NCc1ccc2c(-c3cccc(C(N)=S)c3)c[nH]c2c1 = 4.00 to 4.70

Fill in: Histone-lysine N-methyltransferase ASH1L (Homo sapiens, UniProt Q9NR48) pIC50 for NC(=S)c1cc(-c2cn(CCC(F)F)c3cc(CO)ccc23)c2cc[nH]c2c1 = > 4.70

Fill in: Histone-lysine N-methyltransferase ASH1L (Homo sapiens, UniProt Q9NR48) pIC50 for NC(=S)c1cccc(-c2cn(CC(F)(F)F)c3cc(N)ccc23)c1 = > 4.70

Fill in: Histone-lysine N-methyltransferase ASH1L (Homo sapiens, UniProt Q9NR48) pIC50 for NCc1ccc2c(c1)c(CC(CF)CF)cn2-c1cccc(C(N)=S)c1 = > 4.70

Fill in: Histone-lysine N-methyltransferase ASH1L (Homo sapiens, UniProt Q9NR48) pIC50 for NC(=S)c1cccc(-c2cn(CCC(F)F)c3cc(CNCCOCCOCCOCCNc4cccc5c4C(=O)N(C4CCC(=O)NC4=O)C5=O)ccc23)c1 (stereo not drawn) = > 4.70

Fill in: Histone-lysine N-methyltransferase ASH1L (Homo sapiens, UniProt Q9NR48) pIC50 for NC(=S)c1cccc(-c2cn(CC3C(F)(F)COCC3(F)F)c3cc(CO)ccc23)c1 = > 4.70

Fill in: Histone-lysine N-methyltransferase ASH1L (Homo sapiens, UniProt Q9NR48) pIC50 for NC(=S)c1cccc(-c2cn(C3CCCCC3O)c3cc(CO)ccc23)c1 (stereo not drawn) = > 4.70

Fill in: Histone-lysine N-methyltransferase ASH1L (Homo sapiens, UniProt Q9NR48) pIC50 for NC(=S)c1cc(-c2cccc3[nH]ccc23)ccc1N = < 4.00

Fill in: Histone-lysine N-methyltransferase ASH1L (Homo sapiens, UniProt Q9NR48) pIC50 for Cn1cc(-c2cccc(C(N)=S)c2)c2ccccc21 = 4.00 to 4.70

Fill in: Histone-lysine N-methyltransferase ASH1L (Homo sapiens, UniProt Q9NR48) pIC50 for NCc1cccc2c(-c3cccc(C(N)=S)c3)c[nH]c12 = 4.00 to 4.70

----------
SYSTEM UNDER TEST: Histone-lysine N-methyltransferase ASH1L (Homo sapiens)
# IC50 values compiled below

Here is how some compounds turned out for IC50.
NC(=S)c1cccc(-c2cn(CC(CO)C(F)F)c3cc(CO)ccc23)c1 (stereo not drawn)
< 20 µM
NC(=S)c1ccsc1
> 100 µM

Fill in: Histone-lysine N-methyltransferase ASH1L (Homo sapiens) IC50 for NC(=S)c1cccc(-c2cn(C3CCOCC3)c3cc(-c4ccn[nH]4)ccc23)c1 = < 20 µM

Fill in: Histone-lysine N-methyltransferase ASH1L (Homo sapiens) IC50 for CC(N)c1cccc(-c2cccc3[nH]ccc23)c1 (stereo not drawn) = > 100 µM

Fill in: Histone-lysine N-methyltransferase ASH1L (Homo sapiens) IC50 for NC(=S)c1cccc(-c2cccc3c2ccn3CO)c1 = 20 to 100 µM

Fill in: Histone-lysine N-methyltransferase ASH1L (Homo sapiens) IC50 for NC(=S)c1cccc(-c2cn(CCCC(F)(F)F)c3cc(CNCc4c[nH]cn4)ccc23)c1 = < 20 µM

Fill in: Histone-lysine N-methyltransferase ASH1L (Homo sapiens) IC50 for NC(=S)c1cccc(-c2cn(CCC(F)F)c3cc(CF)ccc23)c1 = < 20 µM

Fill in: Histone-lysine N-methyltransferase ASH1L (Homo sapiens) IC50 for COCc1cc2c(-c3cccc(C(N)=S)c3)ccc(O)c2[nH]1 = 20 to 100 µM

----------
This document collects pIC50 values reported for Histone-lysine N-methyltransferase ASH1L (Homo sapiens, UniProt Q9NR48).
pIC50: −log10 of the molar value.

Here is how some compounds turned out for pIC50.
NC(=S)c1cccc(-c2cn(CCCC(F)(F)F)c3cc(CNCc4cn[nH]n4)ccc23)c1
> 4.70
NC(=S)c1cccc(-c2cccnc2)c1
< 4.00

Fill in: Histone-lysine N-methyltransferase ASH1L (Homo sapiens, UniProt Q9NR48) pIC50 for NC(=S)c1ccc(-c2cn(CCC(F)F)c3cc(CO)ccc23)[nH]1 = > 4.70

Fill in: Histone-lysine N-methyltransferase ASH1L (Homo sapiens, UniProt Q9NR48) pIC50 for NC(=S)c1cc(O)cc(-c2cn(CCCC(F)(F)F)c3cc(N)ccc23)c1 = 4.00 to 4.70

Fill in: Histone-lysine N-methyltransferase ASH1L (Homo sapiens, UniProt Q9NR48) pIC50 for Cc1cc2c(-c3cccc(C(N)=S)c3)cccc2n1C = < 4.00

Fill in: Histone-lysine N-methyltransferase ASH1L (Homo sapiens, UniProt Q9NR48) pIC50 for NC(=O)c1cccc(-c2cn(CCC(F)F)c3cc(N)ccc23)c1 = > 4.70

Fill in: Histone-lysine N-methyltransferase ASH1L (Homo sapiens, UniProt Q9NR48) pIC50 for NC(=S)c1ccc2cc[nH]c2c1 = < 4.00

----------
This document collects IC50 values reported for Histone-lysine N-methyltransferase ASH1L (Homo sapiens, UniProt Q9NR48).

Here is how some molecules turned out for IC50.
NC(=S)c1cccc(-c2cn(C3CCN(S(N)(=O)=O)CC3)c3cc(N)ccc23)c1
< 20 µM
NC(=S)c1cccc(-c2cn(Cc3ccc[nH]3)c3cc(CO)ccc23)c1
< 20 µM
NC(=S)c1c[nH]c(=O)c(-c2cn(CCC(F)F)c3cc(CO)ccc23)c1
< 20 µM

Fill in: Histone-lysine N-methyltransferase ASH1L (Homo sapiens, UniProt Q9NR48) IC50 for NC(=S)c1cccc(-c2cn(CCC(F)F)c3cc(CNC(=O)C(F)(F)F)ccc23)c1 = < 20 µM

Fill in: Histone-lysine N-methyltransferase ASH1L (Homo sapiens, UniProt Q9NR48) IC50 for NC(=S)c1cccc(-c2cn(CC(CF)C(F)F)c3cc(N)ccc23)c1 (stereo unspecified) = < 20 µM

Fill in: Histone-lysine N-methyltransferase ASH1L (Homo sapiens, UniProt Q9NR48) IC50 for NC(=S)c1cccc(-c2cn(CC3(C(F)(F)F)CC3)c3cc(N)ccc23)c1 = < 20 µM

Fill in: Histone-lysine N-methyltransferase ASH1L (Homo sapiens, UniProt Q9NR48) IC50 for NC(=S)c1cc(O)cc(-c2cccc3[nH]ccc23)c1 = > 100 µM

Fill in: Histone-lysine N-methyltransferase ASH1L (Homo sapiens, UniProt Q9NR48) IC50 for NC(=S)c1cccc(-c2ccc(CCC(F)F)c3[nH]cnc23)c1 = < 20 µM

----------
This document collects pIC50 values reported for UniProt:Q9NR48.
pIC50: −log10 of the molar value.

Here is how some compounds turned out for pIC50.
NC(=S)c1cccc(-c2cn(C3CCN(S(=O)(=O)CCNC(=O)COc4cccc5c4C(=O)N(C4CCC(=O)NC4=O)C5=O)CC3)c3cc(CNc4nnc(N)s4)ccc23)c1 (stereo not drawn)
> 4.70
NC(=S)c1cccc(-c2ccc(S(N)(=O)=O)cc2)c1
< 4.00

In the following, a different compound is considered.
Fill in: UniProt:Q9NR48 pIC50 for CCCS(=O)(=O)N1CCC(n2cc(-c3cccc(C(N)=S)c3)c3ccc(N)cc32)CC1 = > 4.70
